Target: T1, glucose-dependent insulinotropic peptide (gastric inhibitory polypeptide) receptor (GIPR) (human, UniProt P48546 22-466)
T1 sequence (looked up): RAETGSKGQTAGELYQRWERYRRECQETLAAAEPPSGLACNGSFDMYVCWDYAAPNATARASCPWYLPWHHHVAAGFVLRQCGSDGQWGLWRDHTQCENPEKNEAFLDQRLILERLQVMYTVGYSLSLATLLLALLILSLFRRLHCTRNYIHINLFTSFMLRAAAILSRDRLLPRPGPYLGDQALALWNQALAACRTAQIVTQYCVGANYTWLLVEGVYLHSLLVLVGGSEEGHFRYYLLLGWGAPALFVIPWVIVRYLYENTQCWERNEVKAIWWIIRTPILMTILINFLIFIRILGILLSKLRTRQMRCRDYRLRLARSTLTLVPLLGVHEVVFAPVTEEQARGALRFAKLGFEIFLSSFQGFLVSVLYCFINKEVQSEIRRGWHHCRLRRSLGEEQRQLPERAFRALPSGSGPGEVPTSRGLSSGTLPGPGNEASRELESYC
Assay: cell-based or functional assay
Non-standard residues stand in square brackets, D forms with d. Groups on a side chain read outwards from the residue. Primed or numbered codes have the meaning given here. No end group written: not given here. *: point of attachment. Stearoyl = CCCCCCCCCCCCCCCCCC(=O)*; αMeF = C[C@](N)(Cc1ccccc1)C(=O)O; αMeK = C[C@](N)(CCCCN)C(=O)O; Lauroyl = CCCCCCCCCCCC(=O)*; αMeS = C[C@](N)(CO)C(=O)O; PEG2′ = not defined here; Aib = CC(C)(N)C(=O)O
VALUE_TYPE: Primary assay EC50 (cAMP), GIP-R, second run

Given the entry H[Aib]EGS[αMeF]TSDV[αMeS]S[αMeF]LEGEAA[αMeK]E[αMeF]IA[αMeF]VVK([PEG2′-Lauroyl])GG-NH2 [SEQ ID NO 170] , report its measured Primary assay EC50 (cAMP), GIP-R, second run.
28 nM

Given the entry H[Aib]EGS[αMeF]TSDV[αMeS]S[αMeF]LEGEAA[αMeK]E[αMeF]IA[αMeF]VVK([PEG2′-Stearoyl])GG-NH2 [SEQ ID NO 197] , report its measured Primary assay EC50 (cAMP), GIP-R, second run.
27 nM

Given the entry H[Aib]EGS[αMeF]TSDV[αMeS]S[αMeF]LEGEAAK([PEG2′-PEG2′-Stearoyl])E[αMeF]IA[αMeF]VV[αMeK]GG-NH2 [SEQ ID NO 153] , report its measured Primary assay EC50 (cAMP), GIP-R, second run.
27 nM
